molecular target: TYK2 (Homo sapiens, UniProt P29597); construct: Degradation of TYK2 in cells was quantitatively measured using Meso Scale Discovery (MSD) technology; endogenous in cells; host or cells: OCI-LY10; assay: TYK2 MSD degradation in OCI-LY10 cells; type: cell-based; settings: TYK2 degradation in OCI-LY10 cells, 4 to 24 hours incubation
Sequence (P29597 whole entry): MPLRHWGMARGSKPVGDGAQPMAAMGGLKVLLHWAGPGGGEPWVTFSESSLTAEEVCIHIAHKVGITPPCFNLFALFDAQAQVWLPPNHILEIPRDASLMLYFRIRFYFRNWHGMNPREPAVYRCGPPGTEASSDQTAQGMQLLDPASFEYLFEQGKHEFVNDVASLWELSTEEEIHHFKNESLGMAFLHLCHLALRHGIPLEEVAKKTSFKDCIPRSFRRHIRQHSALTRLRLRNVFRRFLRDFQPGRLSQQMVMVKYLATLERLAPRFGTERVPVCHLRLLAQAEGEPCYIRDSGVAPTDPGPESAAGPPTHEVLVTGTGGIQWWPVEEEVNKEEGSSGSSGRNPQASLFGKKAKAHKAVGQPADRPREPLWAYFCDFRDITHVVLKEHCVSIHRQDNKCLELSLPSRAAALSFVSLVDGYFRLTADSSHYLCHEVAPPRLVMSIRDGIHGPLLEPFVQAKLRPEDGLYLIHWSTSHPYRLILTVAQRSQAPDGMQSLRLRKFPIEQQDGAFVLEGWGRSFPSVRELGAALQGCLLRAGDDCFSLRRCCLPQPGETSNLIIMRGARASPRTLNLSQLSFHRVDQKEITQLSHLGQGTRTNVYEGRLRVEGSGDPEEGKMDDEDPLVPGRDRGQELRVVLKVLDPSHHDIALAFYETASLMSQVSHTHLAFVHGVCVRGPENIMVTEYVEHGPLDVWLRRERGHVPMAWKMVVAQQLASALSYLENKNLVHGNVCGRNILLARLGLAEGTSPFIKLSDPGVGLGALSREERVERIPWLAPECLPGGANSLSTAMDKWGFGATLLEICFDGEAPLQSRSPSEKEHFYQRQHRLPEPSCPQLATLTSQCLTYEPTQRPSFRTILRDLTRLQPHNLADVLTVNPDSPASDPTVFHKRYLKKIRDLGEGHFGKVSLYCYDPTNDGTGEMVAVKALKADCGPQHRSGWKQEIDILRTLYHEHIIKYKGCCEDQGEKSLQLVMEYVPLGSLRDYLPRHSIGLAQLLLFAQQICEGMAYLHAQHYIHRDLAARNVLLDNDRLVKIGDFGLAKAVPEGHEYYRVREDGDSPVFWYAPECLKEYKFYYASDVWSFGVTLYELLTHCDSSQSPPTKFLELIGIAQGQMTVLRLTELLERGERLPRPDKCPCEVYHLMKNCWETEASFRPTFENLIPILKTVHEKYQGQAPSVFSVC
experimental-readout: TYK2 MSD OCI-LY10 Dmax %

compound: CNc1cc(N2CCc3c(-c4ccc(CN5CC6(CCC(=Cc7ccc(Cl)c(N8CCC(=O)NC8=O)c7)CC6)C5)cn4)cccc32)nn2c(C(=O)N[C@@H]3C[C@@H]3F)cnc12
result: C (C (75 to 50%))
//
compound: CNc1cc(N2CCc3c(-c4ccc(CN5CC6(CCN(C(=O)c7cc(C)c(Cl)c(N8CCC(=O)NC8=O)c7)CC6(F)F)C5)cn4)cccc32)nn2c(C(=O)N[C@H]3CCC[C@@H]3OC)cnc12
result: D (D (<50%))
//
compound: CNc1cc(N2CCc3c(-c4ncc(CN5CC6(CCN(C(=O)c7cc(N8CCC(=O)NC8=O)c(Cl)cn7)CC6(F)F)C5)cc4F)cc(F)cc32)nn2c(C(=O)N[C@@H]3CC[C@H]3OC)cnc12
result: A (A (>90%))
//
compound: CNc1cc(-c2cn(C3CCN(C(=O)c4ccc(Cl)c(N5CCC(=O)NC5=O)c4)CC3)c3ccccc23)nn2c(C(=O)N[C@@H]3C[C@@H]3F)cnc12
result: D (D (<50%))
//
compound: CNc1cc(N2CCc3c(CN4CCC5(CC4)CCN(C4CCN(C(=O)c6ccc(Cl)c(N7CCC(=O)NC7=O)c6)CC4)CC5(F)F)cccc32)nn2c(C(=O)N[C@@H]3C[C@@H]3F)cnc12
result: B (B (90 to >75%))

Enquiry: # returns recorded TYK2 MSD OCI-LY10 Dmax % (system: TYK2 (Homo sapiens, UniProt P29597)) for "CNc1cc(N2CCc3c(N4CCN(C5CCN(C(=O)c6ccc(Cl)c(N7CCC(=O)NC7=O)c6)CC5)CC4)cccc32)nn2c(C(=O)N[C@@H]3C[C@@H]3F)cnc12"
Return: D (D (<50%))

Enquiry: Again, but for "CNc1cc(N2CCc3c(-c4ccc(CN5CC6(CCN(C(=O)c7cc(C)c(Cl)c(N8CCC(=O)NC8=O)c7)CC6(F)F)C5)c(C)n4)cccc32)nn2c(C(=O)N[C@@H]3C[C@@H]3F)cnc12"
Return: B (B (90 to >75%))

Enquiry: Proceed to "CNc1cc(N2CCc3c(-c4ncc(CN5CC6(CCN(C(=O)c7ccc(C)c(N8CCC(=O)NC8=O)c7)CC6(F)F)C5)cc4F)cccc32)nn2c(C(=O)N[C@@H]3C[C@@H]3F)cnc12"
Return: A (A (>90%))

Enquiry: Now give it for "CNc1cc(N2CCc3c(-c4ncc(CN5CC6(CCN(C(=O)c7cc(N8CCC(=O)NC8=O)c(OC)cc7C)CC6(F)F)C5)cc4F)cccc32)nn2c(C(=O)N[C@@H]3CC[C@H]3OC)cnc12" too.
Return: A (A (>90%))
